Exercise: state measured apparent KD of MS2 coat protein for each of the sequences provided.
- System: MS2 coat protein
- test_description: apparent KD of MS2 coat protein; designed switch direction (-1 OFF switch, 1 ON switch): -1; higher = weaker reporter binding
- assay_setup: Eterna round: R95; input ligand: microRNA oligo, concentration not stated
Lab book: enter the figure in nM, no units written.

Enquiry: Need apparent KD of MS2 coat protein of ACACAACAUGAGGAUCACCCAUGUCAGGAUAUGCAGAAGAAGAAGAAGAGAAGAGAGAGCAGAAGGGACAACAC [Ex 1 M3] (puzzle: Exclusion 1) , thanks.
Return: 30

Enquiry: Need apparent KD of MS2 coat protein of CUUAGACAUGAGGAUCACCCAUGUGAGGAUAUGAUGCAGCAGUGGUCUACGCUGUGCAUCAGAAGGCACAUAUG [mod of disincluded 3 v.3 (my top score 87 - 28% A's)] (puzzle: Exclusion 1) , thanks.
Return: 108

Enquiry: Need apparent KD of MS2 coat protein of AUUUUGUCAGGAUAUGACUAGUAGCACGAAAGUGCUACUACUUAGAAGGGACAUGAGGAUCACCCAUGUAUUCC [Bring Us a Shrubbery-10] (puzzle: Exclusion 4) , thanks.
Return: 15.1

Enquiry: Need apparent KD of MS2 coat protein of AUGAGGAUAAGAAAGUGAAGAUAGAGCGUACCUUAUGGAACAUGAGGAUCACCCAUGUAGCUUUUUGCUCGUCUUAU [JR_SV3TOV2_Sub031] (puzzle: Sensor v3, turn-off variant 2) , thanks.
Return: 49.5

Enquiry: Need apparent KD of MS2 coat protein of GCAUUUGAGCAGGAUAUAGCCUGAACAUAAUGGUUAGAAGGGCUCACAUGAGGAUCACCCAUGUGGUGUCCUAA [Rateria] (puzzle: Exclusion 6) , thanks.
Return: 11.6
